Answer each item with its documented EC50.
- test.target: human 5HT2c receptor (VNV Isoform) (Homo sapiens, UniProt P28335, I156V/I160V)
- protocol.text: Calcium mobilization (FLIPR) 5HT2c receptor agonist assay
- assay.context: HEK 293 EBNA cells expressing human 5HT2c receptor (VNV isoform), agonist-induced calcium fluorescence, read-out: 5-HT2c EC50 (hVNV)

Which EC50 is listed for Cc1c(C(=O)C(C)(C)C)sc2c1CCNCC2 ?
< 100 nM

What does the data say about its EC50? Entry: FC(F)(F)C1CCc2c1sc1c2CCNCC1 (racemic)
< 10 nM

Return reported EC50; argument: CC1CNCCc2sc3c(c21)C(C)(C)CC3C(F)(F)F (single isomer, unassigned) [17 Diastereomer 1]
< 100 nM

Sample CC(C)(c1cc2c(s1)CCNCC2)C(F)(F)F — what was its EC50?
< 100 nM

Recorded EC50 of CC(c1cc2c(s1)CCNCC2)C(F)(F)F (racemic) , please.
< 10 nM

###

- test.target: human 5HT2c receptor (VNV Isoform) (Homo sapiens, UniProt P28335, I156V/I160V)
- Sequence (P28335 33-458 I156V/I160V): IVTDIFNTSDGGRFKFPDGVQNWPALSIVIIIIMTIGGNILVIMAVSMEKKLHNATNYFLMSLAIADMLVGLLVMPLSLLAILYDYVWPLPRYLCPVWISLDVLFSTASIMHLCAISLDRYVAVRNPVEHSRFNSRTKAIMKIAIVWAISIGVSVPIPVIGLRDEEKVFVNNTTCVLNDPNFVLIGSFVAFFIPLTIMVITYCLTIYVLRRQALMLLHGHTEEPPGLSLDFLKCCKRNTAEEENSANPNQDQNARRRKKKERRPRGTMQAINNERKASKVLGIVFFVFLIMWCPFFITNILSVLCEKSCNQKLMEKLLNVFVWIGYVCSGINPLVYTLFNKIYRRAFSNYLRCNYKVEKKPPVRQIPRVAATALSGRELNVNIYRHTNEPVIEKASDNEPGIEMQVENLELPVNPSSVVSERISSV
- protocol.text: Calcium mobilization (FLIPR) 5HT2c receptor agonist assay
- assay.context: HEK 293 EBNA cells expressing human 5HT2c receptor (VNV isoform), agonist-induced calcium fluorescence, read-out: 5-HT2c EC50 (hVNV)
pEC50: −log10 of the molar value.
quantity.kind: pEC50

# lookup: pEC50 of CC1CNCCc2sc(CC(F)(F)F)c(Br)c21 (single isomer, unassigned)
> 7.00

Need pEC50 of CC(C)(C)C(=O)c1cc2c(s1)CCNCC2 , thanks.
> 8.00

Data request, read-out pEC50, for CC1CNCCc2sc(C(=O)C(C)(C)C)cc21 (racemic)
> 7.00

Recorded pEC50 for CCS(=O)(=O)c1sc2c(c1C)C(C)CNCC2 (single isomer, unassigned) , please?
> 7.00

Reported pEC50, compound CC(C)(C)C(=O)c1sc2c(c1Cl)CCNCC2 : ____
> 7.00

Which pEC50 value belongs to CC1(C)CC(C(F)(F)F)c2sc3c(c21)CCNCC3 (racemic) ?
> 6.00

###

- test.target: human 5HT2c receptor (VNV Isoform) (Homo sapiens, UniProt P28335, I156V/I160V)
- Sequence (P28335 33-458 I156V/I160V): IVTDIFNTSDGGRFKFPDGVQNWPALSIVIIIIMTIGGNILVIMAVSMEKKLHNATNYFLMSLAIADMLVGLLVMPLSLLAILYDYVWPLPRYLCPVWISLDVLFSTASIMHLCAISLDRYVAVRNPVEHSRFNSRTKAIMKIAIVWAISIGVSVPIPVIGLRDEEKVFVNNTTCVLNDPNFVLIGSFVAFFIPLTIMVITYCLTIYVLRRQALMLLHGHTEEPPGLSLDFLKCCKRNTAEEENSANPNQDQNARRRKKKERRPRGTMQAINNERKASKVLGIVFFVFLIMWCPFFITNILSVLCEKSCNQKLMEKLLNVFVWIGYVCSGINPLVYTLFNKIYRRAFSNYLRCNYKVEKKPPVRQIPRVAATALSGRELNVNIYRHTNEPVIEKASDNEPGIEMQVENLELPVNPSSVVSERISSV
- protocol.text: Calcium mobilization (FLIPR) 5HT2c receptor agonist assay
- assay.context: HEK 293 EBNA cells expressing human 5HT2c receptor (VNV isoform), agonist-induced calcium fluorescence, read-out: 5-HT2c EC50 (hVNV)
pEC50: −log10 of the molar value.
quantity.kind: pEC50

Recorded pEC50 for CC1CNCCc2sc3c(c21)CCC3C(F)(F)F (single isomer, unassigned) , please?
> 7.00

Which pEC50 reading was recorded for the compound CC1Cc2cc(Br)sc2CCN1 (racemic) ?
> 6.00

Any idea what its pEC50 is? The compound is CC1CNCCc2sc3c(c21)C(C)(C)CC3C(F)(F)F (single isomer, unassigned) [17 Diastereomer 2]
> 6.00

Reported pEC50 for FC(F)(F)Cc1sc2c3c1CCC3CNCC2 (racemic) : what is it?
> 7.00

Can you share its pEC50? I mean this compound: CC1CNCCc2sc(C(=O)C(C)(C)C)c(Br)c21 (single isomer, unassigned)
> 7.00

Which value of pEC50 has been reported for CCS(=O)(=O)c1cc2c(s1)CCNCC2 in the records?
> 8.00

For FC(F)(F)Cc1sc2c(c1Br)CCNCC2 , what is its reported pEC50?
> 8.00

Look up pEC50: O=S(=O)(c1ccccc1)c1cc2c(s1)CCNCC2
> 8.00

Consider the compound shown here: CC1(C)CC2CNCCc3sc(Br)c1c32 (racemic) What is its recorded pEC50?
> 6.00
